GI50 reference
# Test system: human SKM-1 acute myeloid leukemia cells
# procedure-summary: SKM-1 antiproliferation cell-based assay (ATPlite)
# details: Homo sapiens, SKM-1, 96 h, SKM-1 antiproliferation assay, 4 days, Table C2

CC(=O)N1CCN(c2ccc(-c3cc(F)cc(-c4ccnc(N5CCNCC5)c4)c3O)cc2Cl)C1=O [Example 381] = 300 to 3000 nM
CNC(=O)c1cc(-c2cccc(-c3ccc(NC(C)=O)c(F)c3)c2O)cc(N2CCNCC2)n1 [Example 349] = 300 to 3000 nM

# query: GI50 of entry CO[C@H]1CCN(c2cc(-c3cc(F)cc(-c4ccc(-n5ccn(C)c5=O)c(Cl)c4)c3O)ccn2)C1 [Example 691] 30 to 300 nM

# query: GI50 of entry Cn1ccn(-c2ccc(-c3cc(F)cc(-c4ccc(F)c(N5CCN(C(C)(C)C)CC5)c4)c3O)cc2Cl)c1=O [Example 719] 0.3 to 30 nM

# query: GI50 of entry CN1CCN(c2ccc(-c3cc(C(C)(C)C)cc(-c4ccnc(N5CCNCC5)c4)c3O)cc2Cl)C1=O [Example 310] 300 to 3000 nM

# query: GI50 of entry CN1CCN(c2ccc(-c3cc(F)cc(-c4cnc(N5CCOCC5)c(N5CCNCC5)c4)c3O)cc2Cl)C1=O [Example 415] 30 to 300 nM

# query: GI50 of entry COc1cc(-c2cc(F)cc(-c3ccc(-n4ccn(C)c4=O)c(Cl)c3)c2O)cc(N2CCN(C(C)(C)C)CC2)n1 [Example 732] 0.3 to 30 nM

# query: GI50 of entry CC(=O)NC1(C)CCN(c2cc(-c3cc(F)cc(-c4ccc(-n5ccn(C)c5=O)c(Cl)c4)c3O)ccn2)C1 (stereo not drawn) [Example 782] 30 to 300 nM
